Test system: MDA-MB-436
Assay: normalised response (% of control), CellTox Green; higher = less cell death (100 = DMSO, 0 = benzethonium chloride kill control)
Details: incubation time: 72 h
Please note: Yes applies when normalised response is 90% or greater, and No applies otherwise.

COMPOUND	STUDY_SYSTEM	CLASS_NAME
CC1(C)NC(=O)N(c2ccc([N+](=O)[O-])c(C(F)(F)F)c2)C1=O [Nilutamide] (1000 nM)	MDA-MB-436	Yes
C[C@]12CC[C@@H]3c4ccc(O)cc4C[C@@H](CCCCCCCCC[S+]([O-])CCCC(F)(F)C(F)(F)F)[C@H]3[C@@H]1CC[C@@H]2O (some centres not stated) [Fulvestrant] (10 nM)	MDA-MB-436	Yes
NC(=O)Nc1cc(-c2cccc(F)c2)sc1C(=O)N[C@H]1CCCNC1 [AZD7762] (1000 nM)	MDA-MB-436	No
Cc1ccc(C(=O)Nc2ccc(CN3CCN(C)CC3)c(C(F)(F)F)c2)cc1C#Cc1cnc2cccnn12 [Ponatinib] (100 nM)	MDA-MB-436	Yes
N#CCNC(=O)c1ccc(-c2ccnc(Nc3ccc(N4CCOCC4)cc3)n2)cc1 [Momelotinib] (1000 nM)	MDA-MB-436	Yes
CCC1=C[C@@H]2CN(C1)Cc1c([nH]c3ccccc13)[C@@](C(=O)OC)(c1cc3c(cc1OC)N(C)[C@H]1[C@@](O)(C(=O)OC)[C@H](OC(C)=O)[C@]4(CC)C=CCN5CC[C@]31[C@@H]54)C2 [Vinorelbine] (1000 nM)	MDA-MB-436	No
CCC(C)(C)C(=O)O[C@H]1C[C@@H](C)C=C2C=C[C@H](C)[C@H](CC[C@@H]3C[C@@H](O)CC(=O)O3)[C@H]21 [Simvastatin] (10000 nM)	MDA-MB-436	No

* * *

Tested on: CAL-85-1
Assay: normalised viability (% of control), CellTiter-Blue; higher = more viable cells (about 100 = DMSO control)
Settings: 30 nM; incubation time: 72 h

COMPOUND	STUDY_SYSTEM	normalised viability [%]
CN[C@@H]1C[C@H]2O[C@@](C)([C@@H]1OC)n1c3ccccc3c3c4c(c5c6ccccc6n2c5c31)C(=O)N[C@H]4O	CAL-85-1	73.6
CC(C)Cn1cnc2c(N)nc3ccccc3c21	CAL-85-1	90.6
CN(C)/N=N/c1[nH]cnc1C(N)=O	CAL-85-1	84.6
O=P1(NCCCl)OCCCN1CCCl (stereo not drawn) [Ifosfamide]	CAL-85-1	89.1
Clc1ccc(Nc2nnc(Cc3ccncc3)c3ccccc23)cc1	CAL-85-1	87.6
Cn1c(CCCC(=O)O)nc2cc(N(CCCl)CCCl)ccc21	CAL-85-1	94.8
N.N.[Cl][Pt][Cl] [Cisplatin]	CAL-85-1	87.7
C[C@]12CC[C@@H]3c4ccc(O)cc4C[C@@H](CCCCCCCCC[S+]([O-])CCCC(F)(F)C(F)(F)F)[C@H]3[C@@H]1CC[C@@H]2O (stereo partly drawn)	CAL-85-1	91.7

* * *

normalised response listing for selected compounds.
Test system: HCC1143
Assay: normalised response (% of control), CellTox Green; higher = less cell death (100 = DMSO, 0 = benzethonium chloride kill control)
Settings: incubation time: 72 h

COMPOUND	normalised response (%)
N#CCNC(=O)c1ccc(-c2ccnc(Nc3ccc(N4CCOCC4)cc3)n2)cc1 [Momelotinib] (1000 nM)	113
Cn1c(CCCC(=O)O)nc2cc(N(CCCl)CCCl)ccc21 [Bendamustine] (100 nM)	110
C=C(c1ccc(C(=O)O)cc1)c1cc2c(cc1C)C(C)(C)CCC2(C)C [Bexarotene] (100 nM)	97.9
CC(C)Cn1cnc2c(N)nc3ccccc3c21 [Imiquimod] (2500 nM)	104
CC(C)Cn1cnc2c(N)nc3ccccc3c21 [Imiquimod] (25 nM)	81.4
N.N.[Cl][Pt][Cl] [Cisplatin] (1000 nM)	108
C#Cc1cccc(Nc2ncnc3cc(OCCOC)c(OCCOC)cc23)c1 [Erlotinib] (10000 nM)	16.9
CS(=O)(=O)c1ccc(C2=C(c3ccccc3)C(=O)OC2)cc1 [Rofecoxib] (10000 nM)	114
Cc1ccc(C(=O)Nc2ccc(CN3CCN(C)CC3)c(C(F)(F)F)c2)cc1C#Cc1cnc2cccnn12 [Ponatinib] (10 nM)	69.8
C=C(c1ccc(C(=O)O)cc1)c1cc2c(cc1C)C(C)(C)CCC2(C)C [Bexarotene] (1000 nM)	83.9
C[C@@H](Oc1cc(-c2cnn(C3CCNCC3)c2)cnc1N)c1c(Cl)ccc(F)c1Cl [Crizotinib] (100 nM)	114
NC(=O)Nc1cc(-c2cccc(F)c2)sc1C(=O)N[C@H]1CCCNC1 [AZD7762] (10 nM)	105
CC(=O)Nc1ccc(C(=O)Nc2ccccc2N)cc1 [Tacedinaline] (10 nM)	96.9
COc1cc([C@@H]2c3cc4c(cc3[C@@H](O[C@@H]3O[C@@H]5CO[C@@H](C)O[C@H]5[C@H](O)[C@H]3O)[C@H]3COC(=O)[C@H]23)OCO4)cc(OC)c1O [Etoposide] (10000 nM)	98.3
Cc1ccc(-n2nc(C(C)(C)C)cc2NC(=O)Nc2ccc(OCCN3CCOCC3)c3ccccc23)cc1 [Doramapimod] (100 nM)	104
Clc1ccc(Nc2nnc(Cc3ccncc3)c3ccccc23)cc1 [Vatalanib] (100 nM)	117
CN(C)/N=N/c1[nH]cnc1C(N)=O [Dacarbazine] (10000 nM)	116

* * *

System: MDA-MB-468
Assay: drug sensitivity score (DSS), CellTox Green (DSS (AUC-based score)); higher = stronger drug effect (viability inhibition or cytotoxicity); extreme values may be limits of the assay
Details: incubation time: 72 h

MOLECULE	drug sensitivity score
CO[C@H]1/C=C\C=C(/C)C(=O)NC2=CC(=O)C(NCCN(C)C)=C(C[C@@H](C)C[C@H](OC)[C@H](O)[C@@H](C)/C=C(\C)[C@@H]1OC(N)=O)C2=O	1.6
O=P1(NCCCl)OCCCN1CCCl (centres undefined) [Ifosfamide]	0
CN[C@@H]1C[C@H]2O[C@@](C)([C@@H]1OC)n1c3ccccc3c3c4c(c5c6ccccc6n2c5c31)C(=O)N[C@H]4O	0
Cn1c(CCCC(=O)O)nc2cc(N(CCCl)CCCl)ccc21	4.02

* * *

Tested on: CAL-51
Test: normalised viability (% of control), CellTiter-Blue; higher = more viable cells (about 100 = DMSO control)
Settings: 3 nM; incubation time: 72 h

COMPOUND	normalised viability [%]
CNCc1ccc(-c2[nH]c3cc(F)cc4c3c2CCNC4=O)cc1	119
NCC(=O)CCC(=O)O	105
Cc1ccc(C(=O)Nc2ccc(CN3CCN(C)CC3)c(C(F)(F)F)c2)cc1C#Cc1cnc2cccnn12	97.7
CO[C@H]1/C=C\C=C(/C)C(=O)NC2=CC(=O)C(NCCN(C)C)=C(C[C@@H](C)C[C@H](OC)[C@H](O)[C@@H](C)/C=C(\C)[C@@H]1OC(N)=O)C2=O	96
CCC1(c2ccc(N)cc2)CCC(=O)NC1=O (stereo not drawn) [Aminoglutethimide]	87.2
O=C1CCC(N2C(=O)c3ccccc3C2=O)C(=O)N1 (stereo not drawn) [Thalidomide]	90.8
O=P1(NCCCl)OCCCN1CCCl (stereo not drawn) [Ifosfamide]	114
Cn1c(Nc2ccc(C(F)(F)F)cc2)nc2cc(Oc3ccnc(-c4ncc(C(F)(F)F)[nH]4)c3)ccc21	94.2

* * *

Test system: MCF-10A
Assay: normalised response (% of control), CellTiter-Glo; higher = more viable cells (100 = DMSO, 0 = benzethonium chloride kill control)
Conditions: incubation time: 72 h
The entries below are paired with their reported normalised response.
READOUT_KIND: normalised response (%)

COMPOUND	VALUE_UNIT	ASSAY_RESULT
COc1cc2nccc(Oc3ccc(NC(=O)C4(C(=O)Nc5ccc(F)cc5)CC4)cc3)c2cc1OC [Cabozantinib] (0.1 nM)	%	92.2
CN(N=O)C(=O)N[C@@H](C=O)[C@@H](O)[C@H](O)[C@H](O)CO [Streptozocin] (10 nM)	%	105
N[C@@H](CSC(c1ccccc1)(c1ccccc1)c1ccccc1)C(=O)O [S-trityl-L-cysteine] (4000 nM)	%	96.3
Cc1ccc(C(=O)Nc2ccc(CN3CCN(C)CC3)c(C(F)(F)F)c2)cc1C#Cc1cnc2cccnn12 [Ponatinib] (0.1 nM)	%	102
Cc1ccc(C(=O)Nc2ccc(CN3CCN(C)CC3)c(C(F)(F)F)c2)cc1C#Cc1cnc2cccnn12 [Ponatinib] (100 nM)	%	103
CCCCCCCCCCCCCCCCCCOP(=O)([O-])OC1CC[N+](C)(C)CC1 [Perifosine] (250 nM)	%	110
O=C(CCCCCCC(=O)Nc1ccc([C@H]2O[C@@H](CSc3nc(-c4ccccc4)c(-c4ccccc4)o3)C[C@@H](c3ccc(CO)cc3)O2)cc1)NO [Tubacin] (1 nM)	%	92.8
N[C@@H](CSC(c1ccccc1)(c1ccccc1)c1ccccc1)C(=O)O [S-trityl-L-cysteine] (40 nM)	%	105
O=C1CCC(N2C(=O)c3ccccc3C2=O)C(=O)N1 (stereo unspecified) [Thalidomide] (10 nM)	%	100
CC1(C)NC(=O)N(c2ccc([N+](=O)[O-])c(C(F)(F)F)c2)C1=O [Nilutamide] (1 nM)	%	106
NC(=O)Nc1cc(-c2cccc(F)c2)sc1C(=O)N[C@H]1CCCNC1 [AZD7762] (100 nM)	%	91.6
COc1cc([C@@H]2c3cc4c(cc3[C@@H](O[C@@H]3O[C@@H]5CO[C@@H](C)O[C@H]5[C@H](O)[C@H]3O)[C@H]3COC(=O)[C@H]23)OCO4)cc(OC)c1O [Etoposide] (1 nM)	%	110
CC(=O)Nc1ccc(C(=O)Nc2ccccc2N)cc1 [Tacedinaline] (0.1 nM)	%	98.4
CC(C)Cn1cnc2c(N)nc3ccccc3c21 [Imiquimod] (250 nM)	%	104
O=C(O)c1ccc(-c2c[nH]c3ncc(-c4ccccc4)cc23)cc1C1CCCC1 (1 nM)	%	89.7
O=P1(NCCCl)OCCCN1CCCl (stereo unspecified) [Ifosfamide] (1 nM)	%	92.1
CCC1=C[C@@H]2CN(C1)Cc1c([nH]c3ccccc13)[C@@](C(=O)OC)(c1cc3c(cc1OC)N(C)[C@H]1[C@@](O)(C(=O)OC)[C@H](OC(C)=O)[C@]4(CC)C=CCN5CC[C@]31[C@@H]54)C2 [Vinorelbine] (1000 nM)	%	63
CO[C@H]1/C=C\C=C(/C)C(=O)NC2=CC(=O)C(NCCN(C)C)=C(C[C@@H](C)C[C@H](OC)[C@H](O)[C@@H](C)/C=C(\C)[C@@H]1OC(N)=O)C2=O [Alvespimycin] (100 nM)	%	13.5
O=C(CCCCCCC(=O)Nc1ccc([C@H]2O[C@@H](CSc3nc(-c4ccccc4)c(-c4ccccc4)o3)C[C@@H](c3ccc(CO)cc3)O2)cc1)NO [Tubacin] (10 nM)	%	99.1
COc1cc2nccc(Oc3ccc(NC(=O)C4(C(=O)Nc5ccc(F)cc5)CC4)cc3)c2cc1OC [Cabozantinib] (100 nM)	%	88.6
C#Cc1cccc(Nc2ncnc3cc(OCCOC)c(OCCOC)cc23)c1 [Erlotinib] (10 nM)	%	98.8
Cc1ccc(-n2nc(C(C)(C)C)cc2NC(=O)Nc2ccc(OCCN3CCOCC3)c3ccccc23)cc1 [Doramapimod] (1000 nM)	%	89.1
CCC(C)(C)C(=O)O[C@H]1C[C@@H](C)C=C2C=C[C@H](C)[C@H](CC[C@@H]3C[C@@H](O)CC(=O)O3)[C@H]21 [Simvastatin] (10 nM)	%	108
CNCc1ccc(-c2[nH]c3cc(F)cc4c3c2CCNC4=O)cc1 [Rucaparib] (1000 nM)	%	101
Cc1ccc(C(=O)N(CCCN)[C@@H](c2oc3cc(Cl)ccc3c(=O)c2Cc2ccccc2)C(C)C)cc1 (0.1 nM)	%	90.2
N#CCNC(=O)c1ccc(-c2ccnc(Nc3ccc(N4CCOCC4)cc3)n2)cc1 [Momelotinib] (1000 nM)	%	77
